Provide the recorded growth for the entries that follow.
Test system: IGROV1 ovarian
test protocol: NCI-60 one-dose screen, 48 h (100 = growth as untreated, 0 = no growth, -100 = all killed)
recorded conditions: 10 µM unless noted
Description: Growth inhibition of the IGROV1 human tumor cell line is measured as a screen for anti-cancer activity. Cells are grown in 96 well plates and exposed to the test compound for 48 hours. Compounds are tested at a single concentration, which is 10^-5 M for most compounds. The reported endpoint is percent growth (GI% or GIPRCNT), where numbers from 0 - 100% represent growth inhibition, and numbers from -100% - 0 represent cell death. For example, a value of 40 represents 60% growth inhibition. […]
The panel holds about 83,000 compounds, 20% with a hit somewhere; the sample as a whole holds those more often.
Give bare numbers, in %.

molecule	result unit	measured value
CCN1C(=S)N(CC)C2Nn3c(s/c(=C4\C(=O)N(C)c5ccccc54)c3=O)=NC21 (configuration not stated)	%	53.3
c1ccc([P+](CCC[P+](c2ccccc2)(c2ccccc2)c2ccccc2)(c2ccccc2)c2ccccc2)cc1	%	59.1
COc1ccc(-c2cn[nH]c2-c2cc(OC)c3c(c2)OCO3)cc1	%	-17.2
COc1cc(-c2n[nH]nc2-c2ccc3c(c2)OCCO3)cc(OC)c1OC	%	21.9
CCOC(=O)CC(C#N)(CC(=O)OCC)C(=O)OCC	%	118

Please go through the list and note growth for each molecule.
1. Nc1cccc2c1CN(C1CCC(=O)NC1=O)C2=O (configuration not stated)
2. COc1cc(OC)c(C(=O)/C=C/c2cccc(C#N)c2)c(OC)c1
3. CCOC(=O)CC/C(C)=N\Nc1ccc([N+](=O)[O-])cc1
4. O=[N+]([O-])c1c(S(=O)(=O)O)cc2cc(S(=O)(=O)O)ccc2c1[N+](=O)[O-]
5. O=C1c2ccccc2C(=O)c2c(N=Nc3sc(=O)[nH]c3S)cccc21
6. O=c1[nH]c(-c2cn(-c3ccc(Cl)cc3)nn2)nc2ccccc12
7. Cc1ccc(Nc2ncnc3c2sc2ncccc23)cc1

[29.8, 9.48, 71, 103, 94.1, 74.1, 105]

Please go through the list and note growth for each molecule.
1. c1cncc(CNc2ccccc2-c2nnc(Nc3ccc4c(c3)OCCO4)o2)c1
2. O=C(Cc1c(F)cccc1Cl)Nc1ccc(S(=O)(=O)Nc2ncccn2)cc1
3. CN=S(=O)(NC(=O)c1ccc(Cl)cc1Cl)c1ccc(Br)s1 (configuration not stated)
4. Cc1ccc2nc(SCn3nnc4ccccc4c3=O)[nH]c2c1
5. CCCCC(N)(C(=O)O)C1CCCC1 (configuration not stated)

40.9
-23.2
101
83.7
110

* * *

Test system: A549/ATCC NSCLC
test protocol: NCI-60 one-dose screen, 48 h (100 = growth as untreated, 0 = no growth, -100 = all killed)
recorded conditions: 10 µM unless noted
The panel holds about 83,000 compounds, 20% with a hit somewhere; the sample as a whole holds those more often.
Provide the recorded growth for the entries that follow.
Numbers only, in %.

compound	measured value
CC(C)(C)OC(=O)N1C/C(=C\c2cccs2)C(=O)/C(=C/c2cccs2)C1	86.9
CCCCCCCCCCCCCCCCCCOc1cccc(CCOP(=O)(O)OCC[N+](C)(C)C)c1	84.9
O=c1cc(C2NCCc3c2[nH]c2ccccc32)c2c(ccc3ccccc32)o1 (centres undefined)	67.9

Next:
Per the record, COc1ccc(/C=C2\CCCC3=C2NC(C)=NC3c2ccc(OC)c(OC)c2)cc1OC (centres undefined) has growth of 18
